Biological target: UniProt P28335
Sequence (P28335 whole entry): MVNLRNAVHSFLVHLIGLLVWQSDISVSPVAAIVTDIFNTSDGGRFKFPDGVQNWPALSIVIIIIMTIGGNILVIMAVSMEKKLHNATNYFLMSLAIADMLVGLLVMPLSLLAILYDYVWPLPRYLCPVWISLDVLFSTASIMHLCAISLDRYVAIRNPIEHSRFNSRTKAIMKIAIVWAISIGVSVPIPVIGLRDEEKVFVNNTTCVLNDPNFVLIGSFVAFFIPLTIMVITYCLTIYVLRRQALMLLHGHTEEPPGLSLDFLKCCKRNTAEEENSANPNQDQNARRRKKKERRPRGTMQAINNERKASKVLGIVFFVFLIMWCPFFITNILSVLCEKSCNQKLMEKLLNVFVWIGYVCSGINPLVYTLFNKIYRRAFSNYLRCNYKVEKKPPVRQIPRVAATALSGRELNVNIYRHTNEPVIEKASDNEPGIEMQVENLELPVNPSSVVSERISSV
Experiment: Displacement of [3H]mesulergine at human cloned 5HT2C receptor expressed in CHOK1 cell
pIC50: −log10 of the molar value.
assay-readout: pIC50

(P) O=C(Nc1ccc(OCc2ccccn2)nc1)c1c[nH]c2ccccc12
(Q) Cc1ncccc1Oc1ccc(NC(=O)c2cc3ccccc3[nH]2)cn1
Exam item: Two entries are listed, P and Q . Which one carries the higher pIC50? Respond using the label that marks the chosen record.
Marked response: P
